Examples of compounds with documented zone of inhibition at 100 µg/disc follow.
system: Bacillus subtilis; experiment: Antibacterial activity against Bacillus subtilis at 100 ug/disk after 24 hr by paper disk diffusion method; type: functional; conditions: read-out: IZ
Provide the reading as a plain figure in mm.

Cc1ccc(/C=N/c2ccc(Nc3nc(Oc4ccc5c(C)cc(=O)oc5c4)nc(N(C)C)n3)cc2)cc1 ... 17
Cc1cc(=O)oc2cc(Oc3nc(Nc4ccc(/N=C/c5ccc(O)cc5O)cc4)nc(N(C)C)n3)ccc12 ... 18
Cc1cc(=O)oc2cc(Oc3nc(Nc4ccc(/N=C/c5ccccc5Br)cc4)nc(N(C)C)n3)ccc12 ... 16
Cc1ccc(C2SCC(=O)N2c2ccc(Nc3nc(Oc4ccc5c(C)cc(=O)oc5c4)nc(N(C)C)n3)cc2)cc1 (stereo unspecified) ... 19
Cc1cc(=O)oc2cc(Oc3nc(Nc4ccc(N5C(=O)C(CN6CCN(c7ccccn7)CC6)SC5c5ccccc5)cc4)nc(N(C)C)n3)ccc12 (stereo unspecified) ... 16

zone of inhibition at 100 µg/disc recorded for this compound, Cc1cc(=O)oc2cc(Oc3nc(Nc4ccc(N5C(=O)CSC5c5ccc(O)cc5)cc4)nc(N(C)C)n3)ccc12 (stereo unspecified) , is 20

* * *

system: Proteus vulgaris; assay: Antibacterial activity against Proteus vulgaris after 24 hr by agar streak dilution method; format: functional
Examples of compounds with documented MIC follow.
Provide the reading as a plain figure in µg/mL.

Answered cases to consult:
Cc1cc(=O)oc2cc(Oc3nc(Nc4ccc(/N=C/c5ccc(Cl)cc5)cc4)nc(N(C)C)n3)ccc12 ... 50
Cc1cc(=O)oc2cc(Oc3nc(Nc4ccc(N5C(=O)C(CN6CCN(c7ccccn7)CC6)SC5c5ccc(Cl)c(Cl)c5)cc4)nc(N(C)C)n3)ccc12 (configuration not stated) ... 25
Cc1cc(=O)oc2cc(Oc3nc(Nc4ccc(N5C(=O)CSC5c5ccc([N+](=O)[O-])cc5)cc4)nc(N(C)C)n3)ccc12 (configuration not stated) ... 100
Cc1cc(=O)oc2cc(Oc3nc(Nc4ccc(/N=C/c5ccc(O)cc5)cc4)nc(N(C)C)n3)ccc12 ... 50
Cc1cc(=O)oc2cc(Oc3nc(Nc4ccc(N5C(=O)CSC5c5ccc(Cl)cc5Cl)cc4)nc(N(C)C)n3)ccc12 (configuration not stated) ... 50
Cc1cc(=O)oc2cc(Oc3nc(Nc4ccc(N5C(=O)CSC5c5ccc(O)cc5O)cc4)nc(N(C)C)n3)ccc12 (configuration not stated) ... 50

Please turn your attention to the following entry.
MIC recorded for this compound, Cc1cc(=O)oc2cc(Oc3nc(Nc4ccc(N5C(=O)CSC5c5ccc(F)cc5)cc4)nc(N(C)C)n3)ccc12 (configuration not stated) , is 25

* * *

tested on: Candida albicans; assay: Antifungal activity against Candida albicans at 100 ug/disk after 48 hr by paper disk diffusion method; assay type: functional; conditions: read-out: IZ
Examples of molecules with documented zone of inhibition at 100 µg/disc follow.

Answered cases to consult:
Cc1cc(=O)oc2cc(Oc3nc(Nc4ccc(N5C(=O)C(CN6CCN(c7ccccn7)CC6)SC5c5ccccc5C(=O)O)cc4)nc(N(C)C)n3)ccc12 (stereo not drawn) ... < 10 mm
Cc1cc(=O)oc2cc(Oc3nc(Nc4ccc(N5C(=O)CSC5c5ccc([N+](=O)[O-])cc5)cc4)nc(N(C)C)n3)ccc12 (stereo not drawn) ... < 10 mm

zone of inhibition at 100 µg/disc recorded for this molecule, COc1ccc(C2SCC(=O)N2c2ccc(Nc3nc(Oc4ccc5c(C)cc(=O)oc5c4)nc(N(C)C)n3)cc2)cc1OC (stereo not drawn) , is < 10 mm
